Reference source for all entries: ChEMBL document CHEMBL2046304

# Lookup of reported pIC50 keyed by entry
# System: PC-3
# method: Cytotoxicity against androgen-independent human PC3 cells after 72 hrs by SRB assay
# Type: functional, cell-based
# experimental.conditions: PC-3, 72 h
pIC50: −log10 of the molar value.
readout.label: pIC50

COc1ccc(/C=C/C(=O)/C(F)=C(O)/C=C/c2ccc(OC)c(OC)c2)cc1OC : 4.75
COc1cc(/C=C/C(=O)CC(=O)/C=C/c2ccc(O)c(OC)c2)ccc1O : 4.44
COc1cc(/C=C/C(=O)/C=C(O)/C=C/c2ccc(OC(C)(C)C(=O)Nc3ccc(F)c(C(F)(F)F)c3)c(OC)c2)ccc1O : 4.28
COc1cc(/C=C/C(=O)/C=C(O)/C=C/c2ccc(OC(C)(C)C(=O)Nc3ccc(C#N)c(C(F)(F)F)c3)c(OC)c2)ccc1O : 4.32
COc1ccc(/C=C/C(=O)C(F)(F)C(=O)/C=C/c2ccc(OC)c(OC)c2)cc1OC : 4.35
COc1cc(/C=C/C(O)=C/C(=O)/C=C/c2ccc(OC)c(OC)c2)ccc1O : 4.48
COc1ccc(/C=C/C(=O)/C=C(O)/C=C/c2ccc(OC)c(OC)c2)cc1OC : 4.63
COc1ccc(/C=C/C(=O)/C=C(O)/C=C/c2ccc(OCC(C)(O)C(=O)Nc3ccc(C#N)c(C(F)(F)F)c3)c(OC)c2)cc1OC (centres undefined) : 4.00
CC(O)(CS(=O)(=O)c1ccc(F)cc1)C(=O)Nc1ccc(C#N)c(C(F)(F)F)c1 (racemic) [BICALUTAMIDE] : 4.12
CC(C)C(=O)Nc1ccc([N+](=O)[O-])c(C(F)(F)F)c1 [FLUTAMIDE] : 4.01
COc1ccc(/C=C/C(=O)/C=C(O)/C=C/c2ccc(OCC(C)(O)C(=O)Nc3ccc([N+](=O)[O-])c(C(F)(F)F)c3)c(OC)c2)cc1OC (centres undefined) : 4.41
